molecular target: Bifunctional epoxide hydrolase 2 (Homo sapiens); assay: Inhibition of recombinant human full length sEH assessed as reduction in 6-methoxy-2-naphthaldehyde formation using PHOME as substrate preincubated for 30 to 45 mins followed by substrate addition and measured after 30 to 45 mins by fluorescence assay
Sequence (P34913 whole entry): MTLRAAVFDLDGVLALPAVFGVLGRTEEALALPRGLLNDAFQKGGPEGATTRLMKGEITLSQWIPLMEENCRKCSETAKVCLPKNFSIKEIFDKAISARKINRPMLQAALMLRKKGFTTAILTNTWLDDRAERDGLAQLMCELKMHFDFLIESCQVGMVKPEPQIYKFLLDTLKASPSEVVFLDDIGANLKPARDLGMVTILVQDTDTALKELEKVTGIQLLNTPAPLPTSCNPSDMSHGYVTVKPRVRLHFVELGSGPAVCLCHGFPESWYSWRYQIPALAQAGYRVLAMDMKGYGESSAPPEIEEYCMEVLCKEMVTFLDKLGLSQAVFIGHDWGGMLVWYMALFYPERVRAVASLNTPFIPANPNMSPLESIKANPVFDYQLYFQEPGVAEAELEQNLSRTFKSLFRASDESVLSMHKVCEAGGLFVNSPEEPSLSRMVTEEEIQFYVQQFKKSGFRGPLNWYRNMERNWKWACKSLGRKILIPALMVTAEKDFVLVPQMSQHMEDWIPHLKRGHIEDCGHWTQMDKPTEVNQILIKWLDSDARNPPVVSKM
pIC50: −log10 of the molar value.
Test Readout: pIC50

Example entries and their recorded answers appear below.
O=C(NCc1ccccc1C(F)(F)F)c1ccc2c(c1)[nH]c(=O)n2Cc1ccccn1
6.34
O=C(NCc1ccccc1C(F)(F)F)c1ccc2c(c1)[nH]c(=O)n2Cc1cccc(Cl)c1
7.06

A. O=C(NCc1ccccc1C(F)(F)F)c1ccc2c(c1)[nH]c(=O)n2Cc1ccccc1C(F)(F)F
B. CS(=O)(=O)Nc1ccc(CNC(=O)c2ccc3c(ccn3Cc3cccc(F)c3)c2)c(C(F)(F)F)c1
C. CC(C)Cn1ccc2cc(C(=O)NCc3ccc(NS(=O)(=O)C4CC4)cc3C(F)(F)F)ccc21
*Q* Provide the items ranked by increasing pIC50. Please express your ranking as an ordered list of the labels.
*A* A, B, C
